Listed here are sequences together with their documented self-splicing fitness (ln).
protocol_notes: self-splicing fitness, log relative to wild type (ln ratio); higher = more splicing; Tetrahymena group I intron in knt gene, E. coli kanamycin selection, DiMSum; sequences stand for … in CUCUCU…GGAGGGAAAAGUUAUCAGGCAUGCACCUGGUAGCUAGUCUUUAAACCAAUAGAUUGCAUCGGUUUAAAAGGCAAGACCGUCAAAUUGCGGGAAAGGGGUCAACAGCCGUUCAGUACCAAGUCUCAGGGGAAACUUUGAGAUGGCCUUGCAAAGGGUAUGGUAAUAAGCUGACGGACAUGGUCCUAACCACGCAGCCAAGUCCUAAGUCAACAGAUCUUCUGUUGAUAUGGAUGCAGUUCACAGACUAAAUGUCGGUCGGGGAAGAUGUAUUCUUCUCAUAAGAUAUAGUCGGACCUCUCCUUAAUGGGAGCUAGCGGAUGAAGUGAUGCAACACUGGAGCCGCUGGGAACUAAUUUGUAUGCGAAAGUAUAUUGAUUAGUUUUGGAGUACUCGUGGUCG;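 also: selection with 25 µg/mL kanamycin versus none on LB agar overnight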
condition_notes: 30 °C

{"item_sequence": "UAGUAGCAAUAUUACGCCCG", "self-splicing fitness (ln)": -0.0603}
{"item_sequence": "GAGAAGCAAUAUUACGUCUC", "self-splicing fitness (ln)": -4.38}
{"item_sequence": "UGGUAGCAAUAUUACGUACA", "self-splicing fitness (ln)": -0.28}
{"item_sequence": "UCAUAGCAAUAUUACGGCGC", "self-splicing fitness (ln)": -2.63}
{"item_sequence": "GGUAAGCAAUAUUACGUUAU", "self-splicing fitness (ln)": -2.4}
{"item_sequence": "CAAUAGCAAUAUUACGCACG", "self-splicing fitness (ln)": -1.01}
{"item_sequence": "AACUAGCAAUAUUACGCACA", "self-splicing fitness (ln)": -0.559}
{"item_sequence": "GUAUAGCAAUAUUACGUUGC", "self-splicing fitness (ln)": -2.83}
{"item_sequence": "GUGAAGCAAUAUUACGGGGU", "self-splicing fitness (ln)": -3.53}
{"item_sequence": "GAAUAGCAAUAUUACGUGGA", "self-splicing fitness (ln)": -3.38}
{"item_sequence": "AAAUAGCAAUAUUACGCUGA", "self-splicing fitness (ln)": -2.31}
{"item_sequence": "AUAUAGCAAUAUUACGAAGA", "self-splicing fitness (ln)": -2.16}
{"item_sequence": "AAUUAGCAAUAUUACGUUGG", "self-splicing fitness (ln)": -3.34}
{"item_sequence": "GUGAAGCAAUAUUACGCUUA", "self-splicing fitness (ln)": -1.49}
{"item_sequence": "AAUCAGCAAUAUUACGUGUG", "self-splicing fitness (ln)": -0.753}
{"item_sequence": "ACUCAGCAAUAUUACGUCUC", "self-splicing fitness (ln)": -1.8}
